target or test system: BCRP (Homo sapiens, UniProt Q9UNQ0)
Sequence (Q9UNQ0 1-655): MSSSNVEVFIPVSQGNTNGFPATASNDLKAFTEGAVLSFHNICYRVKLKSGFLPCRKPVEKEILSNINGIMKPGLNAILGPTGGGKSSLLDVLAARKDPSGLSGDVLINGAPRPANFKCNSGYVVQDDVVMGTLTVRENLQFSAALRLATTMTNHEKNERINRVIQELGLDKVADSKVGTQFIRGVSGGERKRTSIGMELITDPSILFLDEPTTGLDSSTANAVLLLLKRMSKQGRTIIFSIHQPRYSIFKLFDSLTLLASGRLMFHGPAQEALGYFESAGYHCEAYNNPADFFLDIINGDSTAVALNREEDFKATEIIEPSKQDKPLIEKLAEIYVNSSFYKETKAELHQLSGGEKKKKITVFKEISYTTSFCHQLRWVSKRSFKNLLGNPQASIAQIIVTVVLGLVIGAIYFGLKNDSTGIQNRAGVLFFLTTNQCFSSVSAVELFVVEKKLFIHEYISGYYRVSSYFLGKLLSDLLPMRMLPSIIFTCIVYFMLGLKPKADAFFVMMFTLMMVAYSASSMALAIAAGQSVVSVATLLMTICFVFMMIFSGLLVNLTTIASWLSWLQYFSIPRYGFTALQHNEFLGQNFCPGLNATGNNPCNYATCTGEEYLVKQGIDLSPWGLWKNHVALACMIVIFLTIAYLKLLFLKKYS
assay notes: BCRP substrate assessment, Caco-2 monolayers
Format: in vitro ADME
Design: host or cells: Caco-2 (clone C2BBe1)
condition: human, Caco-2, pH 7.4, with Ko143 0.5 µM, Caco-2; Cladribine + 0.5 μM Ko143; A-to-B
measure name: recovery at 120 min
Returns: string containing the numeric result and its unit.

Query :: Give reported recovery at 120 min value for Nc1nc(Cl)nc2c1ncn2[C@H]1C[C@H](O)[C@@H](CO)O1 [Cladribine, cladribine]
Result :: 89.8%
